Molecular target: T1, HLA-DR (DRA*0101/DRB1*0401) on PRIESS cells (human, UniProt P01903 26-254; P01911 30-266)
T1 MHC II alpha: not shown
T1 MHC II beta: not shown
Experiment: cell-based or functional assay
RECORDED_METRIC: EC50 of cell killing, cross-linked Fab, bivalent agent (nM)
Field format: number, assumed nM, no unit text.

// solved cases for EC50 of cell killing, cross-linked Fab, bivalent agent follow
BINDER	RESULT
MS-GPC-10 Fab (Fab, V domains shown, Fab from pMx9_Fab: VH-CH1 with FLAG tag and STREP tag II, VL-CL; VH residue 1 is Q in Fab; also called E6-Fab; E6) VH: QVQLKESGPALVKPTQTLTLTCTFSGFSLSTSGVGVGWIRQPPGKALEWLALIDWDDDKYYSTSLKTRLTISKDTSKNQVVLTMTNMDPVDTATYYCARQLHYRGGFDLWGQGTLVTVSS VL: DIVLTQPPSVSGAPGQRVTISCSGSSSNIGSNYVSWYQQLPGTAPKLLIYDNNQRPSGVPDRFSGSKSGTSASLAITGLQSEDEADYYCQSYDLTMGVFGGGTKLTVLG	33
MS-GPC-8 Fab (Fab, V domains shown, Fab from pMx9_Fab: VH-CH1 with FLAG tag and STREP tag II, VL-CL; VH residue 1 is Q in Fab; also called B8-Fab; B8) VH: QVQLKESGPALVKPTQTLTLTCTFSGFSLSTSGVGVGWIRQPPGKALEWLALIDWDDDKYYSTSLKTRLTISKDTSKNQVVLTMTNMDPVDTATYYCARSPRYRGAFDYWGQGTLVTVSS VL: DIVLTQPPSVSGAPGQRVTISCSGSSSNIGSNYVSWYQQLPGTAPKLLIYDNNQRPSGVPDRFSGSKSGTSASLAITGLQSEDEADYYCQSYDMPQAVFGGGTKLTVLG	31

# next binder below
Any idea what its EC50 of cell killing, cross-linked Fab, bivalent agent is? The binder is MS-GPC-8-27-41 Fab (Fab, V domains shown, Fab: VH-CH1 with FLAG tag and STREP tag II, VL-CL; VH residue 1 is Q in Fab; also called 1D09C3) VH: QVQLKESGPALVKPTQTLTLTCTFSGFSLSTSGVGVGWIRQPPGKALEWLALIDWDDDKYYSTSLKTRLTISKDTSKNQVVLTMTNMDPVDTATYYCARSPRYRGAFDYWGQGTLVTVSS VL: DIVLTQPPSVSGAPGQRVTISCSGSESNIGNNYVQWYQQLPGTAPKLLIYDNNQRPSGVPDRFSGSKSGTSASLAITGLQSEDEADYYCQSYDMNVHVFGGGTKLTVLG
7.7
